# target-system: T1, human TIGIT on Jurkat cells (TIGIT/NFAT reporter Jurkat cells, BPS Bioscience #60538); Promega TIGIT Effector … (human, UniProt Q495A1 22-244)
# T1 construct: whole, on cells; Same protein on two bought Jurkat lines (flow cytometry: BPS; bioassay: Promega); also called hu TIGIT cells; cells expressing human TIGIT
# T1 sequence (looked up): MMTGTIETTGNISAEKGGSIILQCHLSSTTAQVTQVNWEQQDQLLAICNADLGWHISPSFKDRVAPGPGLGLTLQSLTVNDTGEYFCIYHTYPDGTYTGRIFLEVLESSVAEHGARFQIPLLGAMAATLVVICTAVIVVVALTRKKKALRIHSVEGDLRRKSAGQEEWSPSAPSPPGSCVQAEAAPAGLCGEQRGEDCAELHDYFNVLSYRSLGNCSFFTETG
# experiment-description: flow cytometry, TIGIT/NFAT Jurkat cells, 10 ug/ml
readout-name: MFI

Worked set:
binder	readout-name	observed-result
43586p1.2.E4 (scFv, V domains shown) VH: EVQLLESGGGLVQPGGSLRLSCAASGFTFSDYLMTWVRQAPGKGLEWVSTITWDGDRTYYADSVKGRFTISRDNSKNTLYLQMNSLRAEDTAVYYCAKHWTVFQYGMDVWGQGTTVTVSS VL: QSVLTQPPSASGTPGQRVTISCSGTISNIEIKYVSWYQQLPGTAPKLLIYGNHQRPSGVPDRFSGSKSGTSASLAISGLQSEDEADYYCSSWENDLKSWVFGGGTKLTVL	MFI	9550 MFI
43586p1.1.C2 (scFv, V domains shown) VH: EVQLLESGGGLVQPGGSLRLSCAASGFTFSDYYMNWVRQAPGKGLEWVSSINWNGGTTYYADSVKGRFTISRDNSRNTLYLQMNSLRAEDTAVYYCAKDQNWNFYYGMDVWGQGTTVTVSS VL: QSVLTQPPSASGTPGQRVTISCSGGSSNIGTNYVSWYQQLPGTAPKLLLYKEDQRPSGVPDRFSGSKSGTSASLAISGLQSEDEADYYCATWDGSLRSWVFGGGTKLTVL	MFI	6710 MFI
43586p1.2.C9 (scFv, V domains shown) VH: EVQLLESGGGLVQPGGSLRLSCAASGFTFDDYVMSWVRQAPGKGLEWVSLINWNGDKTYYADSVKGRFTISRDNSKNTLYLQMNSLRAEDTAIYYCAKHWIVFQYGMDVWGQGTTVTVSS VL: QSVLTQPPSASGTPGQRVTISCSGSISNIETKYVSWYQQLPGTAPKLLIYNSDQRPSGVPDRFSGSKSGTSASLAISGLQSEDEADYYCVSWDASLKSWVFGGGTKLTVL	MFI	8330 MFI
43586p1.2.E2 (scFv, V domains shown) VH: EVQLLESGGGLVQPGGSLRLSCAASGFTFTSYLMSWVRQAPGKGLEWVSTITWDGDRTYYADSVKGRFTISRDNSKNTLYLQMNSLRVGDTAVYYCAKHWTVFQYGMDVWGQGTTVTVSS VL: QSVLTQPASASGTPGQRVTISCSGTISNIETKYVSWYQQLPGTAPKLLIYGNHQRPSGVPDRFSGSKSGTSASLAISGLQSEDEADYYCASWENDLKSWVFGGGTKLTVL	MFI	9320 MFI

MFI reported for this binder 43586p2.C09 (scFv, V domains shown) VH: EVQLLESGGGLVQPGGSLRLSCTASGFTFTSYAMSWVSQAPGKGLEWVAGISYDGSIKYYADSVKGRLTISRDNSKNTLYLQMNSLRAEDTAIYYCAKHLTGGTTDYYYYAMDVWGQGTTVTVSS VL: QSVLTQPPSASGTPGQRVTISCSGSTSNIGTNRYVHWYQQFPGTAPKLLIYGTDRRPSGVSDRFSGSKSGTSASLAISGLQSEDEADYYCAAWDDSLSAWVFGGGTKLTVL : 8830 MFI
